The reported measurements were obtained from PubChem BioAssay (NCATS).

tested on: Es-2; experiment: Primary qHTS to identify gynecologic anti-cancer compounds using libraries of approved drugs and bioactive compounds (AID 1345084); conditions: Gynecologic cancer cell panel viability, ATPlite luminescence, 48 h; series mostly up to 57.5 µM; further: nearly all actives have a fitted effect of over 55% in size
Results filed as inconclusive are left out. Active and inactive are the calls of the source. The call rests on the fitted dose curve; in most records, active means well fitted cell-killing curve with a large enough effect; inconclusive means small, poorly fitted or top-dose-only effect, or effect the other way; inactive means flat fitted curve, though single readings scatter.
// classify into active, inactive

Use these answered entries as a reference point.
CC(C)c1cnn2c(NCc3ccccc3)cc(N[C@@H](CO)[C@H](O)CO)nc12 | active
CC(=O)SC[C@@H](C)C(=O)N1CCC[C@H]1C(=O)N[C@@H](Cc1ccccc1)C(=O)O | inactive
Cc1coc2c1C(=O)C(=O)c1c-2ccc2c1CCCC2(C)C | inactive
CC(O)C1C(=O)N2C(C(=O)O)=C(SC3CNC(C(=O)N(C)C)C3)C(C)C12 (centres undefined) | inactive
CCS(=O)(=O)c1cccc(-c2cc(C(=O)NC3CCN(C)CC3)c(C)c3[nH]c4ncc(C)cc4c23)c1 | active
COCCOc1ccc2c(c1)ncn2-c1ccc2cccc(N3CCC(N)CC3)c2n1 | active
COc1cccc(Nc2c(C(N)=O)cnc3c(C)cc(S(=O)(=O)c4cccc(C(=O)N(C)C)c4)cc23)c1 | inactive
Nc1ccccc1NC(=O)c1ccc(CNC(=O)OCc2cccnc2)cc1 | active

Entry `Cc1cc(Nc2ncnc3ccc(-c4ccc(CNCCS(C)(=O)=O)o4)cc23)ccc1Oc1ccn2ncnc2c1` : call = ?
inactive

====

assay: Quantitative High-Throughput drug screen in 47 multiple myeloma cell lines against the NCATS MIPE library collection: AMO1_DSMZ cell viability assay (AID 1918927; further: nearly all actives have a fitted effect of over 30% in size); settings: AMO1 myeloma cells viability, CellTiter-Glo ATP luminescence, 48 h; series mostly up to 45.8 µM
Results filed as inconclusive are left out. Calls of active or inactive are those of the source. The call rests on the fitted dose curve; in most records, active means well fitted cell-killing curve with a large enough effect; inconclusive means small, poorly fitted or top-dose-only effect, or effect the other way; inactive means no such curve, though single readings can be large or run the other way.
// classify into 1 = active, 0 = inactive

Use these answered entries as a reference point.
CN(C)Cc1c(C(=O)NCCOc2ccc(C(=O)NO)cc2)oc2ccccc12 | 1
CC(C)C[C@H](NC(=O)CNC(=O)c1cc(Cl)ccc1Cl)B(O)O | 1
O=C(O)c1ccc2c(c1)nc(Nc1cccc(Cl)c1)c1ccncc12 | 1

Kindly consider the entry below.
Entry `C[C@H]1C[C@@H]2[C@@H]([C@@H](O)C[C@@]3(C)[C@H]2CC[C@]3(O)C(=O)CO)[C@@]2(C)C=CC(=O)C=C12` : call = ?
0

====

Test: Quantitative High-Throughput drug screen in 47 multiple myeloma cell lines against the NCATS MIPE library collection: EJM_DSMZ cell viability assay (AID 1918926; further: nearly all actives have a fitted effect of over 30% in size)
Conditions: EJM myeloma cell viability, CellTiter-Glo ATP, 48 h; series mostly up to 45.8 µM
Description: PI: Beverly A. Mock Ph.D. Laboratory of Cancer Biology and Genetics, Center for Cancer Research, National Cancer Institute, National Institute of Health, Bethesda, Maryland […] 5; Detector; 425V; Luminescence; Viewlux PerkinElmer. […] 1. […] Briefly, the corresponding myeloma cell lines were screened in 1,536-well plates with 500 cells, 5-uL per well for inhibition of cell viability (assessed by measuring ATP levels with CellTiterGlo). […]
Inconclusive results are not listed. The source made the active and inactive calls. Calls follow the shape of the dose curve; as a rule, active = well fitted cell-killing curve with a large enough effect; inconclusive = small, poorly fitted or top-dose-only effect, or effect the other way; inactive = no such curve, though single readings can be large or run the other way.
// classify into active, inactive

Use these answered entries as a reference point.
CCCn1c(=O)c2[nH]c(-c3cnn(Cc4cccc(C(F)(F)F)c4)c3)nc2n(CC)c1=O | active
C=CCn1c(=O)c2cnc(Nc3ccc(N4CCN(C)CC4)cc3)nc2n1-c1cccc(C(C)(C)O)n1 | active
CC(C)C[C@H](NC(=O)CNC(=O)c1cc(Cl)ccc1Cl)B(O)O | active
COc1cccc2nc(-c3cccs3)nc(NN3C(=O)C=C(C)C3=O)c12 | active

Entry `O=C(NCCS(=O)(=O)c1ccc(C(F)(F)F)cn1)c1ccc(Cl)cc1` : call = ?
inactive

====

Biological target: Voltage-gated inwardly rectifying potassium channel KCNH2 (Homo sapiens) (UniProt Q12809)
Sequence (Q12809 whole entry, looked up): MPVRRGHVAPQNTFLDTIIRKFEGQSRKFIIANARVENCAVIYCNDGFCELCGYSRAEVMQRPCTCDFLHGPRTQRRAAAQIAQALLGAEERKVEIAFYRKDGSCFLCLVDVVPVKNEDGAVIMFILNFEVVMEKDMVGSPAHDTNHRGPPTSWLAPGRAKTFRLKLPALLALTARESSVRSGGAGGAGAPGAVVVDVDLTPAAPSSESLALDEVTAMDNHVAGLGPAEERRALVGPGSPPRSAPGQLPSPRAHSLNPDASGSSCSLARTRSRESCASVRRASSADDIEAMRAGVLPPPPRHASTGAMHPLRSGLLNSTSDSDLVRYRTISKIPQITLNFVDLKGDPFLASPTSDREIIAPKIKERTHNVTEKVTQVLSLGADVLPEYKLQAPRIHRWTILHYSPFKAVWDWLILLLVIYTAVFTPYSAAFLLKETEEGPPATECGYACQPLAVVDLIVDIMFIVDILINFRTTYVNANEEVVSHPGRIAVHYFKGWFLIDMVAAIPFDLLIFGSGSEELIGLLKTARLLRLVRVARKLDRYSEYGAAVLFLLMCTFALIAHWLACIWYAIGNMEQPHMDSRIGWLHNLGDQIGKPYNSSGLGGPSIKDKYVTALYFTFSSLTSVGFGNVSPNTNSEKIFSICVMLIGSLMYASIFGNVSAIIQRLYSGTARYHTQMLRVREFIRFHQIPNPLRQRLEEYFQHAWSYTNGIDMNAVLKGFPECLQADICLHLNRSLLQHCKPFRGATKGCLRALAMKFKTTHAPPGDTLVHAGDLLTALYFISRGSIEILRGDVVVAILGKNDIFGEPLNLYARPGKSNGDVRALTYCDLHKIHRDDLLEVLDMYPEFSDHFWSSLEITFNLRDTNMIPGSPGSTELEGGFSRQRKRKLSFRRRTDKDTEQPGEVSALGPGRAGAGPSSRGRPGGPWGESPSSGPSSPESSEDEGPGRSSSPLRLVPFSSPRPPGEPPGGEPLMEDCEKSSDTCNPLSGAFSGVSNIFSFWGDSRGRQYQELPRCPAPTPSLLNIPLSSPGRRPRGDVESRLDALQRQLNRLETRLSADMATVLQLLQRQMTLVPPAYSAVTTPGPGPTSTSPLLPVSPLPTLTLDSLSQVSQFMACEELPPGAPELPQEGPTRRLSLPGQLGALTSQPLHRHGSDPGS
Test: qHTS Assay for Small Molecule Inhibitors of the Human hERG Channel Activity (AID 588834);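 further: lower thallium flux fluorescence means stronger hERG block; nearly all actives have a fitted effect of over 50% in size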
Conditions: U2OS BacMam hERG, FluxOR thallium flux fluorescence; series mostly up to 46.1 µM
Procedure: NIH Chemical Genomics Center [NCGC] National Institutes of Environmental Health Sciences [NIEHS] National Toxicology Program [NTP] We have developed a 1536-well cell-based assay for quantitative high throughput screening (qHTS) to determine in vitro hERG channel blockage as a measure of cardio toxicity with small molecules. […] 13. Read fluorescence Intensity on FDSS for 10 Sec with 1 sec interval […] 15. Read fluorescence Intensity on FDSS for 2 min with 1 sec interval […]
Records with an inconclusive call do not appear. Active and inactive are the calls of the source. The call rests on the fitted dose curve; in most records, active means well fitted inhibition curve with a large enough effect; inconclusive means small, poorly fitted or top-dose-only effect; inactive means flat fitted curve, though single readings scatter.
// classify into TRUE for active, FALSE for inactive

Use these answered entries as a reference point.
Cc1nc2ccc(CN(C)c3ccc(C(=O)N[C@@H](CCC(=O)O)C(=O)O)s3)cc2c(=O)[nH]1 | FALSE
CN1c2cc(O)c(N=NC(N)=O)cc2CC1S(=O)(=O)O (stereo unspecified) | FALSE
CN[C@H]1CCc2cc(OC)c(OC)c(OC)c2-c2ccc(OC)c(=O)cc21 | FALSE
COc1ccc(CC2c3cc(OC)c(OC)cc3CC[N+]2(C)CCC(=O)OCCCCCOC(=O)CC[N+]2(C)CCc3cc(OC)c(OC)cc3C2Cc2ccc(OC)c(OC)c2)cc1OC (stereo unspecified) | FALSE
O=C(O)CO.[NH2-].[NH2-].[Pt+2] | FALSE

Entry `Nc1ccc(S(=O)(=O)Nc2ncccn2)cc1` : call = ?
FALSE

Entry `O=c1c2ccccc2nc2n1CCc1c-2[nH]c2ccccc12` : call = ?
FALSE

Entry `Nc1ccn([C@@H]2O[C@H](CO)[C@H](O)C2(F)F)c(=O)n1` : call = ?
FALSE

Entry `CC=CC1=C(C(=O)O)N2C(=O)[C@H](NC(=O)[C@H](N)c3ccc(O)cc3)[C@@H]2SC1` : call = ?
FALSE

Entry COC(=O)C1=C(C)NC(C)=C(C(=O)OCCN2CCN(C(c3ccccc3)c3ccccc3)CC2)C1c1cccc([N+](=O)[O-])c1 (stereo unspecified) : call = ?
TRUE

Entry `COc1c(N2C[C@@H]3CCCN[C@H]3C2)c(F)cc2c(=O)c(C(=O)O)cn(C3CC3)c12` : call = ?
FALSE

====

assay: Quantitative High-Throughput drug screen in 47 multiple myeloma cell lines against the NCATS MIPE library collection: PCM6_Riken cell viability assay (AID 1919870); details: CellTiter-Glo ATP, 48 h; series mostly up to 45.8 µM; further: nearly all actives have a fitted effect of over 30% in size; further: potency means the concentration at half of the fitted maximal effect
Results filed as inconclusive are left out. Active and inactive are the calls of the source. Calls come from the whole dose curve; as a rule, active = well fitted cell-killing curve with a large enough effect; inconclusive = small, poorly fitted or top-dose-only effect, or effect the other way; inactive = no such curve, though single readings can be large or run the other way.
property.name: Potency

C=CC(=O)Nc1cc2c(Nc3ccc(F)c(Cl)c3)ncnc2cc1C#CC(C)(C)N1CCN(C)CC1 | 0.662 µM (active)
COC(=O)c1ccc2c(C(=Nc3ccc(N(C)C(=O)CN4CCN(C)CC4)cc3)c3ccccc3)c(O)[nH]c2c1 | 2.96 µM (active)
O=C(Cc1ccc(-c2ccc(OCCN3CCOCC3)cc2)cn1)NCc1ccccc1 | 0.0264 µM (active)
COc1ccc(C=Cc2cc(OC)c(OC)c(OC)c2)cc1O | inactive

// each listed molecule needs a value for Potency
1. COc1ccc2c(OCc3nnc4ccc(-c5ccccc5)nn34)ccnc2c1
2. Cc1cc(Nc2cc(N3CCN(C)CC3)nc(Sc3ccc(NC(=O)C4CC4)cc3)n2)n[nH]1
3. O=C(NCCS(=O)(=O)c1ccc(C(F)(F)F)cn1)c1ccc(Cl)cc1
4. CC[C@H](CO)Nc1nc(NCc2ccccc2)c2ncn(C(C)C)c2n1
5. O=C(C=Cc1c(C(=O)O)[nH]c2cc(Cl)cc(Cl)c12)Nc1ccccc1
6. CN(C1CCc2c(c3ccccc3n2CC(=O)O)C1)S(=O)(=O)c1ccc(F)cc1 (stereo not given)

inactive
23.5 µM (active)
inactive
9.35 µM (active)
inactive
3.72 µM (active)

====

test: qHTS drug screen for cell cycle checkpoint inhibitors in PARPi-resistant BRCA-mutant ovarian cancer cell lines. (AID 1963452); settings: PEO1/OlaR viability, CellTiter-Glo luminescence, 96 h; hits give low values
Z-AUC strictly less than -0.7 = t. Otherwise f.

Use these answered entries as a reference point.
CCS(=O)(=O)c1cccc(-c2cc(C(=O)NC3CCN(C)CC3)c(C)c3[nH]c4ncc(C)cc4c23)c1 | t
CNC(=O)c1ccccc1Nc1nc(Nc2ccc(N3CCOCC3)cc2OC)ncc1Cl | f
Cn1c2ccccc2c2c3c(c4c5ccccc5n(CCC#N)c4c21)CNC3=O | f
O=C(O)[C@H](Cc1c[nH]c2ccccc12)N1C(=O)c2ccccc2C1=O | f

Please indicate whether the reported Z-AUC of `CC(C)CC(=O)Nc1n[nH]c2c1CN(C(=O)C1CCN(C)CC1)C2(C)C` is strictly below -0.7.
t

Please indicate whether the reported Z-AUC of `Cc1ccc(NC(=O)C2(c3ccc4c(c3)OC(F)(F)O4)CC2)nc1-c1cccc(C(=O)O)c1` is strictly below -0.7.
f

Please indicate whether the reported Z-AUC of `COc1cc2c(Nc3ccc(NC(=O)c4ccccc4)cc3)ncnc2cc1OCCCN1CCOCC1` is strictly below -0.7.
f

Please indicate whether the reported Z-AUC of `Nc1cc(C(F)(F)F)c(-c2cc(N3CCOCC3)nc(N3CCOCC3)n2)cn1` is strictly below -0.7.
t

Please indicate whether the reported Z-AUC of `CCCCCN(CCC12CC3CC(CC(C3)C1)C2)C(=O)NCCCc1ccncc1` is strictly below -0.7.
f

Please indicate whether the reported Z-AUC of CC1(C)CC(=O)c2c(C(F)(F)F)nn(-c3ccc(C(N)=O)c(NC4CCC(OC(=O)CN)CC4)c3)c2C1 (centres undefined) is strictly below -0.7.
t
